Property: cytotoxicity at 70.5 h; scope: individual compounds
test.method.notes: Human HepG2 cell viability assay in 384 well format
Assay type: toxicity, cell-based
Set-up: dose 125 nL, time 70.5 hour; concentration not given beside the values
condition.summary: HepG2 cells, read-out: Inhibition
measured.attribute: cytotoxicity at 70.5 h

> print(dat)
                                    compound      measured.attribute   value
 1  O=C(NC1CCCCC1)N1CCC(n2cc(-c3ccccn3)nn2)CC1  cytotoxicity at 70.5 h   -6.7%
 2  COc1cc(C(=O)N2CC[C@@H](NC(=O)c3ccccn3)[C@H](O)C2)ccn1  cytotoxicity at 70.5 h  -9.28%
 3             COc1cccc2ccn(CC(=O)NC(C)C)c12  cytotoxicity at 70.5 h   11.3%
 4      CN(C)C(=O)N1CCC2(CC1)CCN(c1ncccn1)C2  cytotoxicity at 70.5 h   2.39%
 5  CC(=O)N1CCc2[nH]cnc2C12CCN(C(=O)Cc1cccs1)CC2  cytotoxicity at 70.5 h  -9.66%
 6  CC(=O)N1CCC(c2nc3ccc(-c4cccc(F)c4)cn3n2)CC1  cytotoxicity at 70.5 h  -9.34%
 7  OCC1N(Cc2ccc(F)cc2)[C@H]2CC[C@]1(O)CC2 (some centres undefined)  cytotoxicity at 70.5 h  -7.04%
 8       O=C(NCc1ccc(F)cc1)N1CCC(C2OCCO2)CC1  cytotoxicity at 70.5 h    -10%
 9       Cc1ccoc1C(=O)N1CCCN(Cc2cnn(C)c2)CC1  cytotoxicity at 70.5 h  -17.4%
10  COc1ccc(CN2CCN(C(=O)N(C)C)[C@@H]3CS(=O)(=O)C[C@@H]32)cc1F  cytotoxicity at 70.5 h   4.21%
11       CCn1cc(S(=O)(=O)N2CCCSc3ccccc32)cn1  cytotoxicity at 70.5 h  -7.44%
12        CCN(C)Cc1n[nH]c(=O)n1-c1cc(F)ccc1C  cytotoxicity at 70.5 h  -5.83%
13  CCCN1CCCn2nc(CNC(=O)CC3CCS(=O)(=O)C3)cc2C1 (centres undefined)  cytotoxicity at 70.5 h  -3.24%
14          COc1ccc(F)cc1-n1cnc(CCNC(C)=O)c1  cytotoxicity at 70.5 h   16.3%
15  CC(C)Oc1cccc(C(=O)C2CCCN(C(=O)c3ccoc3)C2)c1 (centres undefined)  cytotoxicity at 70.5 h  -9.57%
16                  CCC(C)(C)NC(=O)c1scnc1Cl  cytotoxicity at 70.5 h   12.7%
17  Cn1nccc1C1CCN(CC(O)c2cccc(F)c2)CC1 (centres undefined)  cytotoxicity at 70.5 h  -8.37%
18  O=C(NCC1CC1)C1CCC2(CN(C(=O)c3ccno3)C2)O1 (centres undefined)  cytotoxicity at 70.5 h  -13.9%
19         CNC(=O)c1nc(Cn2ncc3ccccc3c2=O)no1  cytotoxicity at 70.5 h  -3.17%
20   Cn1cc(CN2CCc3c(CNC(=O)C4CC4)cncc3C2)cn1  cytotoxicity at 70.5 h  -1.11%
21  COc1ccc2c(c1)CC(NC(=O)NCc1cccs1)CO2 (centres undefined)  cytotoxicity at 70.5 h  -14.1%
22  CC(C)(O)CN1CCN(C(=O)c2cc(Cl)cc3cccnc23)CC1  cytotoxicity at 70.5 h  -11.7%
23        C=C(C)CN1CCC(C(=O)c2cc(F)ccc2F)CC1  cytotoxicity at 70.5 h  0.664%
24  O=C(CN1CCCC1)N1CCCC(c2cc(=O)n3c(n2)CCCCC3)C1 (centres undefined)  cytotoxicity at 70.5 h   2.75%
